Target chain: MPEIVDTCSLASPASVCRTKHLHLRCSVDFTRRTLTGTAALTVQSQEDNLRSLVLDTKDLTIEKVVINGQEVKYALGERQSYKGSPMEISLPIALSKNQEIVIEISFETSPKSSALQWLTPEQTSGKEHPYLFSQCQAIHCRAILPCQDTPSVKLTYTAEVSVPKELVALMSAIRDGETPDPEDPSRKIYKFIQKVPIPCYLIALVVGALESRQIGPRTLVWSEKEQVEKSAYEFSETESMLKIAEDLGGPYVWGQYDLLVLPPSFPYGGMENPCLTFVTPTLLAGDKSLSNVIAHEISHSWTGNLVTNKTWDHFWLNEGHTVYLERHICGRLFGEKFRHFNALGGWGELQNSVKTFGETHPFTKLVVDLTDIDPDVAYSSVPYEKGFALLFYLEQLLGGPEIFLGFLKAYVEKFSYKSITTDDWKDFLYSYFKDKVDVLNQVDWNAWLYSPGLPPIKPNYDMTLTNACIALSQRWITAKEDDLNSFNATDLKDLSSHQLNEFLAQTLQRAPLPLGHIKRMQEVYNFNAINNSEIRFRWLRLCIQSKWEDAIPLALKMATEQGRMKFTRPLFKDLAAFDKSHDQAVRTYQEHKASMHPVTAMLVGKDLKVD
pIC50: −log10 of the molar value.
Cut-off 7 on pIC50, inclusive. At or above means rule met; below means rule not met.

Answered examples (5):
c1ccc(Oc2ccc(OCC3CCCCN3)cc2)cc1 (racemic); rule not met
c1ccc(Cc2ccc(OC[C@H]3CCCCN3)cc2)cc1; rule met
c1ccc(-c2ccc(Oc3ccc(OC[C@H]4CCCCN4)cc3)cc2)cc1; rule met
c1ccc(Oc2ccc(OC[C@@H]3CCCCN3)cc2)cc1; rule not met
O=C(O)CCCN1CCCC[C@H]1COc1ccc(Oc2ccc(Cl)cc2)cc1; rule met

// query Hi, just wondering whether c1ccc(-c2ccc(Oc3ccc(OC[C@@H]4CCCCN4)cc3)cc2)cc1 shows pIC50 of 7 or higher.
// result rule met

// query Also, Clc1ccc(Oc2ccc(OC[C@@H]3CCCCN3)cc2)cc1 please.
// result rule met

// query Also, FC(F)(F)c1ccc(Oc2ccc(OC[C@H]3CCCCN3)cc2)cc1 please.
// result rule not met

// query Also, O=C(O)CCCN1CCCC[C@@H]1COc1ccc(Oc2ccc(Cl)cc2)cc1 please.
// result rule met

---

# target-or-system: UniProt:P09960
quantity-kind: IC50 (µM)
Give your result in µM as a bare value.

Observe how each entry below is paired with its result.
Clc1ccc(Oc2ccc(OC[C@@H]3CCCCN3Cc3ncon3)cc2)cc1; 6.9
c1ccc(Oc2ccc(OC[C@@H]3CCCCN3)cc2)cc1; 0.044
c1cc(-c2ccc(Cc3ccc(OC[C@@H]4CCCCN4)cc3)cc2)cs1; 0.06
c1ccc(-c2ccc(Oc3ccc(OC[C@H]4CCCCN4)cc3)cc2)cc1; 0.096
Clc1ccc(Oc2ccc(OC[C@@H]3CCCCN3)cc2)cc1; 0.11
Clc1ccc(Cc2ccc(OC[C@@H]3CCCCN3)cc2)cc1; 0.438
c1ccc(Oc2ccc(OCC3CCCCN3)cc2)cc1 (racemic); 0.07
FC(F)(F)c1ccc(Oc2ccc(OC[C@H]3CCCCN3)cc2)cc1; 0.093

// query Given the compound c1ccc(Cc2ccc(OCC3CN(Cc4ccccc4)CCN3)cc2)cc1 (stereo not given) , what is its reported IC50?
// result 0.66

// query Also, Fc1ccc(Oc2ccc(OC[C@@H]3CCCCN3)cc2)cc1 please.
// result 0.174

// query Also, O=C(O)CN1CCCC[C@H]1COc1ccc(Oc2ccc(Cl)cc2)cc1 please.
// result 0.88

// query Also, c1ccc(Cc2ccc(OCC3CNCCN3)cc2)cc1 (stereo not given) please.
// result 0.342

// query Also, c1ccc(Oc2ccc(OC[C@H]3CCCCN3)cc2)cc1 please.
// result 0.048

// query Also, O=C(O)CCN1CCCC[C@H]1COc1ccc(Oc2ccc(Cl)cc2)cc1 please.
// result 0.212

// query Also, O=C(O)CCCN1CCCC[C@H]1COc1ccc(Oc2ccc(Cl)cc2)cc1 please.
// result 0.106

---

Below are IC50 values recorded for Leukotriene A-4 hydrolase (Homo sapiens).
Answer by giving the amount and then stating its unit.

Fc1ccc(Oc2ccc(OC[C@@H]3CCCCN3)cc2)cc1; 90 nM
c1ccc(Oc2ccc(OC[C@H]3CCCCN3)cc2)cc1; 126 nM

Below: the item to evaluate.
// query Form: Entry = c1ccc(Cc2ccc(OCC3CCCCN3)cc2)cc1 (racemic) | System = Leukotriene A-4 hydrolase (Homo sapiens) | IC50 = ____
// result 105 nM

---

# target-or-system: Leukotriene A-4 hydrolase (Homo sapiens, UniProt P09960)
quantity-kind: pIC50
A value of pIC50 is the negative decimal logarithm of a concentration given in moles per litre.

c1ccc(Cc2ccc(OCC3CCCCN3)cc2)cc1 (racemic); 6.87
Clc1ccc(Cc2ccc(OC[C@H]3CCCCN3)cc2)cc1; 6.50

// query Given the molecule c1ccc(Cc2ccc(OC[C@H]3CCCCN3)cc2)cc1 , what is its reported pIC50?
// result 7.03

// query Also, O=C(O)CCCN1CCCC[C@@H]1COc1ccc(Oc2ccc(Cl)cc2)cc1 please.
// result 7.28

// query Also, c1ccc(-c2ccc(Oc3ccc(OC[C@@H]4CCCCN4)cc3)cc2)cc1 please.
// result 6.94
